TARGET_UNDER_TEST: NAD-dependent protein deacetylase sirtuin-1 (Homo sapiens)
ASSAY_METHOD_TEXT: Activation of SIRT1 (unknown origin) expressed in bacterial expression system assessed as increase in enzyme activity at 100 uM using Fluorophore labeled-Arg-His-Lys-Lys (Ac) as substrate incubated for 30 mins in presence of NAD+ by fluorimetric method relative to control
Where a SMILES comes first, the peptide text is derived from it.
Exercise: state measured Activity for each of the compounds provided.
Please state the number and follow it with the unit.

Each compound below has a recorded value; state its Activity.
1. N=C(N)NCCC[C@H](NC(=O)[C@H](Cc1c[nH]c2ccccc12)NC(=O)[C@@H](N)Cc1ccccc1)C(=O)O (H-Phe-Trp-Arg-OH)
2. N=C(N)NCCC[C@H](NC(=O)[C@H](Cc1c[nH]c2ccccc12)NC(=O)[C@@H](N)CC(N)=O)C(=O)O (H-Asn-Trp-Arg-OH)

Result string:
28%
24%

Query string: Return Activity for the following compound: N=C(N)NCCC[C@H](NC(=O)[C@H](Cc1ccc(O)cc1)NC(=O)[C@@H](N)CC(N)=O)C(=O)O (H-Asn-Tyr-Arg-OH)
Result string: 4%
